The measurements presented in this section are drawn from patent US12139488B2.

# Tested on: pERK in HCT-116 cells (KRAS G13D)
# assayExplanation: Phospho-ERK inhibition (AlphaLISA SureFire Ultra p-ERK 1/2), HCT116
# Format: cell-based, human
# testParameters: HCT116 cells; Ymin in brackets
endpoint: HCT116 pERK Ymin % (%)
Respond numerically; units are % and should not be typed.

Prompt: Tell me measured HCT116 pERK Ymin % for CC(c1cccc2c1ncn2-c1ccc2ncnc(Nc3c(F)ccc(NS(=O)(=O)c4ccccc4Cl)c3F)c2n1)N1CCOCC1 (stereo not shown) please.
Completion: 2.8

New cases:
Prompt: Tell me measured HCT116 pERK Ymin % for "COc1ccc(S(=O)(=O)Nc2ccc(F)c(Nc3ncnc4ccc(-c5cccc(O)c5)nc34)c2F)c(C)c1" please.
Completion: 1

Prompt: Tell me measured HCT116 pERK Ymin % for "COc1ccc(S(=O)(=O)Nc2ccc(F)c(Nc3ncnc4ccc(-c5cnc6ccccc6c5)nc34)c2F)c(C)c1" please.
Completion: −8

Prompt: Tell me measured HCT116 pERK Ymin % for "COc1ccc(S(=O)(=O)Nc2ccc(F)c(Nc3ncnc4ccc(-c5cnn(C)c5)nc34)c2F)c(C)c1" please.
Completion: −7

---

# measurementTarget: ARAF (Homo sapiens (Human), UniProt P10398)
# Sequence (P10398 whole entry): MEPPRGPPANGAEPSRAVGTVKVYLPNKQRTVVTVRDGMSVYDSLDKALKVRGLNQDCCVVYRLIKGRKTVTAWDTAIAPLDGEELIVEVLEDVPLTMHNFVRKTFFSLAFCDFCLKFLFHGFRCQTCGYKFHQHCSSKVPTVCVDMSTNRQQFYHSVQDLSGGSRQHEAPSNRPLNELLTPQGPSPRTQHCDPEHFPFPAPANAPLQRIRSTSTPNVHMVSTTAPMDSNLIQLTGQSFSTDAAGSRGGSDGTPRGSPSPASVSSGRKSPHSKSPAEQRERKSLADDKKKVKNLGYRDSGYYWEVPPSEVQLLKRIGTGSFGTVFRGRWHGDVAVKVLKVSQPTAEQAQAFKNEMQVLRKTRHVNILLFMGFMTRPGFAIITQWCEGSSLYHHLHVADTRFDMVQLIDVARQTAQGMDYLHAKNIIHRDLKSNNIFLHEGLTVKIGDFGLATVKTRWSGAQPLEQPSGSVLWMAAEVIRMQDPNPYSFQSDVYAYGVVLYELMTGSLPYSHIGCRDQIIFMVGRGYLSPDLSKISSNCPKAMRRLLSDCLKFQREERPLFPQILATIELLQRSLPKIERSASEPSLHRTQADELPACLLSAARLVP
# assayExplanation: ARAF kinase activity assay (AlphaLISA p-MEK 1/2 detection)
# Type: biochemical
Recorded IC50 for the following molecules

Prompt: Tell me measured IC50 for Cc1ccc2c(Nc3cccc(Cl)c3F)nccc2c1NC(=O)c1csc2c(N)ncnc12 [Belvarafenib, reference compound] please.
Completion: > 10 nM

New cases:
Prompt: Tell me measured IC50 for "Nc1cccc2c1ncn2-c1ccc2ncnc(Nc3c(F)ccc(NS(=O)(=O)c4cccc(Cl)c4Cl)c3F)c2n1" please.
Completion: < 1 nM

Prompt: Tell me measured IC50 for Cc1ccc(NC(=O)c2ccnc(C(F)(F)F)c2)cc1-c1cc(OCCO)nc(N2CCOCC2)c1 [LXH254, reference compound] please.
Completion: > 10 nM

Prompt: Tell me measured IC50 for "CC1(O)CCN(c2cccc3c2ncn3-c2ccc3ncnc(Nc4c(F)ccc(NS(=O)(=O)c5cccc(Cl)c5Cl)c4F)c3n2)CC1" please.
Completion: 1 to 10 nM

Prompt: Tell me measured IC50 for "Cc1nc(N)ccc1S(=O)(=O)Nc1ccc(F)c(Nc2ncnc3ccc(-n4cnc5c(N)cccc54)nc23)c1F" please.
Completion: 1 to 10 nM

Prompt: Tell me measured IC50 for O=C1CCc2c(Oc3ccc4c(c3)[C@@H]3[C@H](O4)[C@H]3c3nc4ccc(C(F)(F)F)cc4[nH]3)ccnc2N1 [BGB283, reference compound] please.
Completion: > 10 nM

---

# measurementTarget: UniProt P04049
# Sequence (P04049 whole entry, looked up): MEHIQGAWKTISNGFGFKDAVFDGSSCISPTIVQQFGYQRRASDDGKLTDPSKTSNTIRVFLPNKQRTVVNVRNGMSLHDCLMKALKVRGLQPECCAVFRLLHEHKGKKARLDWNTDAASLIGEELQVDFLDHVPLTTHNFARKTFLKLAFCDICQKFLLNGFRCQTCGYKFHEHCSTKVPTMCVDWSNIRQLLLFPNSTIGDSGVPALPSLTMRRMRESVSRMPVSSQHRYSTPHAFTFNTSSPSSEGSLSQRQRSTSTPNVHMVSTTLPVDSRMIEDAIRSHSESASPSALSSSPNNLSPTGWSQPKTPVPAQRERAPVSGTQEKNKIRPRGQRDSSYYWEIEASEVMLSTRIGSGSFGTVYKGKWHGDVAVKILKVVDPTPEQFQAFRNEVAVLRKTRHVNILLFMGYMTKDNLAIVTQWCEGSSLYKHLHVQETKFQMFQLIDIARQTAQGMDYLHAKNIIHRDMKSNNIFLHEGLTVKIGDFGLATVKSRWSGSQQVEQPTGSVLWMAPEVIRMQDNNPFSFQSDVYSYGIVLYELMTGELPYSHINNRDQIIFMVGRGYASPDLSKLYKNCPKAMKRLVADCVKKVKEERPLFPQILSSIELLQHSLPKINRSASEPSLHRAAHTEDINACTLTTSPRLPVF
# assayExplanation: CRAF kinase activity assay (ADP-Glo)
# Format: biochemical
# testParameters: read-out: Kinase IC50 (nM) CRAF
endpoint: IC50

Prompt: Tell me measured IC50 for "NCc1cccc2c1ncn2-c1ccc2ncnc(Nc3c(F)ccc(NS(=O)(=O)c4ccccc4Cl)c3F)c2n1" please.
Completion: < 10 nM

New cases:
Prompt: Tell me measured IC50 for "Cc1csc(S(=O)(=O)Nc2ccc(F)c(Nc3ncnc4ccc(-n5cnc6ccccc65)nc34)c2F)c1Cl" please.
Completion: < 10 nM

Prompt: Tell me measured IC50 for "O=S(=O)(Nc1ccc(F)c(Nc2ncnc3ccc(-c4cncs4)nc23)c1F)c1ccccc1Cl" please.
Completion: 10 to 50 nM

Prompt: Tell me measured IC50 for "Cc1ncn(-c2ccc3ncnc(Nc4c(F)ccc(NS(=O)(=O)c5ccccc5Cl)c4F)c3n2)c1C" please.
Completion: 10 to 50 nM

Prompt: Tell me measured IC50 for "CN(C)C(=O)c1cn(-c2ccc3ncnc(Nc4c(F)ccc(NS(=O)(=O)c5ccccc5Cl)c4F)c3n2)c2ccccc12" please.
Completion: 10 to 50 nM

Prompt: Tell me measured IC50 for "NC(=O)Cc1cn(-c2ccc3ncnc(Nc4c(F)ccc(NS(=O)(=O)c5ccccc5Cl)c4F)c3n2)c2ccccc12" please.
Completion: < 10 nM

Prompt: Tell me measured IC50 for "Nc1cccc2c1nnn2-c1ccc2ncnc(Nc3c(F)ccc(NS(=O)(=O)c4cccc(Cl)c4Cl)c3F)c2n1" please.
Completion: < 10 nM

---

# Test system: pERK in SW480 cells (KRAS G12D)
# assayExplanation: Phospho-ERK inhibition (AlphaLISA), SW480
# Format: cell-based, human
# testParameters: Homo sapiens; SW480, Table D
endpoint: IC50

Prompt: Tell me measured IC50 for Cc1ccc2c(Nc3cccc(Cl)c3F)nccc2c1NC(=O)c1csc2c(N)ncnc12 [Belvarafenib, reference compound] please.
Completion: 30 to 300 nM

---

# System: pERK in HCT-116 cells (KRAS G13D)
# assayExplanation: Phospho-ERK inhibition (AlphaLISA SureFire Ultra p-ERK 1/2), HCT116
# Format: cell-based, human
# testParameters: HCT116 cells
pIC50: −log10 of the molar value.
endpoint: pIC50

Prompt: Tell me measured pIC50 for O=S(=O)(Nc1ccc(F)c(Nc2ncnc3ccc(-n4cnc5c(C6CCN(CCO)CC6)cccc54)nc23)c1F)c1cccc(Cl)c1Cl [Example 681] please.
Completion: > 6.30

Prompt: Tell me measured pIC50 for Cc1cn(-c2ccc3ncnc(Nc4c(F)ccc(NS(=O)(=O)c5cccc(Cl)c5Cl)c4F)c3n2)nn1 [Example 684] please.
Completion: > 6.30

Prompt: Tell me measured pIC50 for O=S(=O)(Nc1ccc(F)c(Nc2ncnc3ccc(-n4cnc5c(N6CCC(O)(CCO)CC6)cccc54)nc23)c1F)c1cccc(Cl)c1Cl [Example 671] please.
Completion: > 6.30

Prompt: Tell me measured pIC50 for O=S(=O)(Nc1ccc(F)c(Nc2ncnc3ccc(-n4cnc5nccnc54)nc23)c1F)c1cccc(Cl)c1Cl [Example 573] please.
Completion: 5.00 to 6.00

Prompt: Tell me measured pIC50 for CN1CCN(c2ncc(-c3ccc4ncnc(Nc5c(F)ccc(NS(=O)(=O)c6cccc(Cl)c6Cl)c5F)c4n3)s2)CC1 [Example 613] please.
Completion: 6.00 to 6.30

Prompt: Tell me measured pIC50 for CCC1(O)CCN(c2nccc3c2ncn3-c2ccc3ncnc(Nc4c(F)ccc(NS(=O)(=O)c5cccc(Cl)c5Cl)c4F)c3n2)CC1 [Example 691] please.
Completion: > 6.30

The record that follows has no pIC50 shown yet.
Prompt: Tell me measured pIC50 for O=S(=O)(Nc1ccc(F)c(Nc2ncnc3ccc(-c4cnc5n4CCCC5)nc23)c1F)c1cccc(Cl)c1Cl [Example 561] please.
Completion: > 6.30

---

Recorded IC50 for the following molecules
# measurementTarget: BRAF (Homo sapiens (Human), UniProt P15056)
# Sequence (P15056 whole entry): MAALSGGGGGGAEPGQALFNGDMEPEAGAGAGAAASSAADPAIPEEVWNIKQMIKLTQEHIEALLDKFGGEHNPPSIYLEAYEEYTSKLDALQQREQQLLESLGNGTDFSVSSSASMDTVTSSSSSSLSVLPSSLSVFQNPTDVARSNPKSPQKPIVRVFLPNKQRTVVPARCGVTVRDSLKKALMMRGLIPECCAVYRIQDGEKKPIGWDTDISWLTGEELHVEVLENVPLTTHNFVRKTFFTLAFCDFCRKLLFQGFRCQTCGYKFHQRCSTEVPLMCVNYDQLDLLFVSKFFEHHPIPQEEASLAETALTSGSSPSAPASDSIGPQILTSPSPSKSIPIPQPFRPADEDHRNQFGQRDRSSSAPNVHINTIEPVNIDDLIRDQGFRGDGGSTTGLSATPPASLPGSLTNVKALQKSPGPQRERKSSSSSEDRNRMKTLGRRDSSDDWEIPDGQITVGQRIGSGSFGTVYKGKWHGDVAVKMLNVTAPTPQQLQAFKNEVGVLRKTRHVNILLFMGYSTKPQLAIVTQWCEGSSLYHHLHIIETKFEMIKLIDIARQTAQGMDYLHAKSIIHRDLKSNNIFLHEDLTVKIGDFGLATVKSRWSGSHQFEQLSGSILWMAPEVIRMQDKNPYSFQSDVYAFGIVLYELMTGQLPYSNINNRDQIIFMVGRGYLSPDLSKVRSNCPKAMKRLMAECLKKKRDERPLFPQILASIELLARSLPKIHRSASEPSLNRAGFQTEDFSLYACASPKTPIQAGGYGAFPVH
# assayExplanation: BRAF kinase activity assay (ADP-Glo)
# Format: biochemical
# testParameters: read-out: Kinase IC50 (nM) BRAF

Some solved entries appear below for comparison.
Prompt: Tell me measured IC50 for "COc1cncc(-c2ccc3ncnc(Nc4c(F)ccc(NS(=O)(=O)c5ccc(OC)cc5C)c4F)c3n2)c1" please.
Completion: > 10 nM

Prompt: Tell me measured IC50 for "O=S(=O)(Nc1ccc(F)c(Nc2ncnc3ccc(-n4cc(-c5ncc[nH]5)c5ccccc54)nc23)c1F)c1cccc(Cl)c1Cl" please.
Completion: 1 to 10 nM

Prompt: Tell me measured IC50 for "O=S(=O)(Nc1ccc(F)c(Nc2ncnc3ccc(-n4cnc5ccccc54)nc23)c1F)c1ccc(C(F)(F)F)cc1Cl" please.
Completion: > 10 nM

Prompt: Tell me measured IC50 for "Cc1csc(S(=O)(=O)Nc2ccc(F)c(Nc3ncnc4ccc(-n5cnc6ccccc65)nc34)c2F)c1Cl" please.
Completion: < 1 nM

Prompt: Tell me measured IC50 for "COc1ccc(S(=O)(=O)Nc2ccc(F)c(Nc3ncnc4ccc(-n5cnc6ccccc65)nc34)c2F)cc1" please.
Completion: 1 to 10 nM

Prompt: Tell me measured IC50 for "O=C(Nc1cccc2c1ncn2-c1ccc2ncnc(Nc3c(F)ccc(NS(=O)(=O)c4ccccc4Cl)c3F)c2n1)N1CCOCC1" please.
Completion: 1 to 10 nM

The record that follows has no IC50 shown yet.
Prompt: Tell me measured IC50 for "CC(=O)Nc1cccc2c1ncn2-c1ccc2ncnc(Nc3c(F)ccc(NS(=O)(=O)c4ccccc4Cl)c3F)c2n1" please.
Completion: 1 to 10 nM

---

Recorded IC50 for the following compounds
# System: pERK in HCT-116 cells (KRAS G13D)
# assayExplanation: Phospho-ERK inhibition (AlphaLISA SureFire Ultra p-ERK 1/2), HCT116
# Assay type: cell-based, human
# testParameters: HCT116 cells; class symbol

Some solved entries appear below for comparison.
Prompt: Provide IC50, system pERK in HCT-116 cells (KRAS G13D), entry "Cc1c(F)cccc1S(=O)(=O)Nc1ccc(F)c(Nc2ncnc3ccc(-n4cnc(CO)c4)nc23)c1F"
Completion: 1 to 10 µM

Prompt: Provide IC50, system pERK in HCT-116 cells (KRAS G13D), entry "Cc1c(F)cccc1S(=O)(=O)Nc1ccc(F)c(Nc2ncnc3ccc(-n4cc5c(n4)CCCN5CCCO)nc23)c1F"
Completion: 1 to 10 µM

New cases:
Prompt: Provide IC50, system pERK in HCT-116 cells (KRAS G13D), entry "O=S(=O)(Nc1ccc(F)c(Nc2ncnc3ccc(-c4cscn4)nc23)c1F)c1cccc(Cl)c1Cl"
Completion: 0.5 to 1 µM

Prompt: Provide IC50, system pERK in HCT-116 cells (KRAS G13D), entry "CS(=O)(=O)c1cccc2c1ncn2-c1ccc2ncnc(Nc3c(F)ccc(NS(=O)(=O)c4cccc(Cl)c4Cl)c3F)c2n1"
Completion: 1 to 10 µM

Prompt: Provide IC50, system pERK in HCT-116 cells (KRAS G13D), entry "CCOc1nccc2c1ncn2-c1ccc2ncnc(Nc3c(F)ccc(NS(=O)(=O)c4cccc(Cl)c4Cl)c3F)c2n1"
Completion: 0.5 to 1 µM

Prompt: Provide IC50, system pERK in HCT-116 cells (KRAS G13D), entry "Cc1c(F)cccc1S(=O)(=O)Nc1ccc(F)c(Nc2ncnc3ccc(-n4cc5c(n4)CCCN5CCO)nc23)c1F"
Completion: < 0.5 µM

Prompt: Provide IC50, system pERK in HCT-116 cells (KRAS G13D), entry "O=C1CCCN1c1cn(-c2ccc3ncnc(Nc4c(F)ccc(NS(=O)(=O)c5cccc(Cl)c5Cl)c4F)c3n2)c2ccccc12"
Completion: < 0.5 µM
